Ref: patent US20180037631A1

- TARGET_ENTITY: EGFR on the surface of human tumour cells (A431, H292) (human, UniProt P00533 25-1210)
- ASSAY_EXPLANATION: cell-based or functional assay
ASSAY_ENDPOINT: IC50, EGF-stimulated EGFR phosphorylation, A431 cells, In Cell Western (nM)
Your answer is read as nM, so omit the unit and give the number.

INPUT: Please report IC50, EGF-stimulated EGFR phosphorylation, A431 cells, In Cell Western for the following binder: I1-GS10-E1, His-tagged, non-pegylated (designed binder) MGVSDVPRDLEVVAATPTSLLISWSARLKVARYYRITYGETGGNSPVQEFTVPKNVYTATISGLKPGVDYTITVYAVTRFRDYQPISINYRTEIDKGSGSGSGSGSGSGSGSGSGSVSDVPRDLEVVAATPTSLLISWVAGAEDYQYYRITYGETGGNSPVQEFTVPHDLVTATISGLKPGVDYTITVYAVTDMMHVEYTEHPISINYRTEIDKPSQHHHHHH
OUTPUT: 93
